Source listed as paper PMC2920599.

Tested on: Ovarian
assayProcedure: NCI 60 cell panel, five-concentration assay, ovarian subpanel
Assay type: cell-based
details: total growth inhibition; 48 h exposure
Structures can show the parent of a compound that is named as a salt.

compound: COc1cc2c(/C=C3/C(=O)N(C)c4ccc(O)cc43)c(Cl)n(C)c2cc1C
TGI Ovarian: 11.75 µM

compound: CN(C)c1ccc2[nH]c(Cl)c(/C=C3/C(=O)Nc4ccc(O)cc43)c2c1
TGI Ovarian: 52.48 µM

compound: COc1cc2c(cc1C)NC(=O)/C2=C/c1c(Cl)n(C)c2cc(C)c(OC)cc12
TGI Ovarian: 91.20 µM

compound: CC[C@]1(O)C[C@H]2CN(CCc3c([nH]c4ccccc34)[C@@](C(=O)OC)(c3cc4c(cc3OC)N(C=O)[C@H]3[C@@](O)(C(=O)OC)[C@H](OC(C)=O)[C@]5(CC)C=CCN6CC[C@]43[C@@H]65)C2)C1 [Vincristine sulfate, reference compound]
TGI Ovarian: 19.95 µM

compound: COc1cc2c(cc1C)N(C)C(=O)/C2=C/c1c(Cl)n(C)c2cc(C)c(OC)cc12
TGI Ovarian: 60.26 µM

compound: COc1cc2c(/C=C3/C(=O)Nc4ccc(Br)cc43)c(Cl)n(C)c2cc1C
TGI Ovarian: 13.49 µM

###

Test system: full NCI 60 cell panel
In this section, each of the molecules is paired with its reported CC50.

sampleSmiles: COc1cc2c(/C=C3/C(=O)Nc4cc(Cl)ccc43)c(Cl)n(C)c2cc1C
CC50, µM: 49

sampleSmiles: COc1ccc2c(c1)/C(=C\c1c(Cl)[nH]c3ccc(N(C)C)cc13)C(=O)N2
CC50, µM: 49

sampleSmiles: COc1cc2c(/C=C3/C(=O)Nc4ccc(Br)cc43)c(Cl)[nH]c2cc1C
CC50, µM: 39.8

sampleSmiles: COc1cc2c(cc1C)N(C)C(=O)/C2=C/c1c(Cl)n(C)c2cc(C)c(OC)cc12
CC50, µM: 87.1

sampleSmiles: COc1cc2c(/C=C3/C(=O)N(C)c4ccccc43)c(Cl)n(C)c2cc1C
CC50, µM: 77.6

sampleSmiles: CN(C)c1ccc2[nH]c(Cl)c(/C=C3/C(=O)Nc4ccc(Cl)cc43)c2c1
CC50, µM: 38.9

sampleSmiles: COc1cc2c(/C=C3/C(=O)N(C)c4ccc(O)cc43)c(Cl)n(C)c2cc1C
CC50, µM: 33.9

sampleSmiles: COc1cc2c(/C=C3/C(=O)Nc4ccc(Br)cc43)c(Cl)n(C)c2cc1C
CC50, µM: 36.3

###

Tested on: Ovarian
assayProcedure: NCI 60 cell panel, five-concentration assay, ovarian subpanel
Assay type: cell-based
details: total growth inhibition; 48 h exposure

molecule: CN(C)c1ccc2[nH]c(Cl)c(/C=C3/C(=O)Nc4ccc(Cl)cc43)c2c1 [Compound 18]
TGI Ovarian: 11.75 µM

molecule: COc1cc2c(/C=C3/C(=O)Nc4ccc(N(C)C)cc43)c(Cl)n(C)c2cc1C [Compound 10]
TGI Ovarian: 77.62 µM

molecule: COc1cc2c(/C=C3/C(=O)Nc4cc(Cl)ccc43)c(Cl)n(C)c2cc1C [Compound 12]
TGI Ovarian: 2.34 µM

molecule: COc1cc2c(/C=C3/C(=O)N(C)c4ccccc43)c(Cl)n(C)c2cc1C [Compound 13]
TGI Ovarian: 18.20 µM

molecule: COc1cc2c(/C=C3/C(=O)Nc4cc(Cl)ccc43)c(Cl)[nH]c2cc1C [Compound 7]
TGI Ovarian: 14.79 µM

molecule: COc1cc2c(/C=C3/C(=O)Nc4ccc(Br)cc43)c(Cl)[nH]c2cc1C [Compound 4]
TGI Ovarian: 8.13 µM

molecule: COc1cc2c(cc1C)N(C)C(=O)/C2=C/c1c(Cl)[nH]c2ccccc12 [Compound 16]
TGI Ovarian: 11.75 µM

molecule: COc1ccc2c(c1)/C(=C\c1c(Cl)[nH]c3ccc(N(C)C)cc13)C(=O)N2 [Compound 20]
TGI Ovarian: 15.14 µM
